# assayed_system: ACE2 (Homo sapiens, UniProt Q9BYF1)
# protocol_notes: SPR analysis of affinity to ACE2 recombinant protein
# Assay type: binding
# condition: SPR fit quality
# Sequence (Q9BYF1 18-740): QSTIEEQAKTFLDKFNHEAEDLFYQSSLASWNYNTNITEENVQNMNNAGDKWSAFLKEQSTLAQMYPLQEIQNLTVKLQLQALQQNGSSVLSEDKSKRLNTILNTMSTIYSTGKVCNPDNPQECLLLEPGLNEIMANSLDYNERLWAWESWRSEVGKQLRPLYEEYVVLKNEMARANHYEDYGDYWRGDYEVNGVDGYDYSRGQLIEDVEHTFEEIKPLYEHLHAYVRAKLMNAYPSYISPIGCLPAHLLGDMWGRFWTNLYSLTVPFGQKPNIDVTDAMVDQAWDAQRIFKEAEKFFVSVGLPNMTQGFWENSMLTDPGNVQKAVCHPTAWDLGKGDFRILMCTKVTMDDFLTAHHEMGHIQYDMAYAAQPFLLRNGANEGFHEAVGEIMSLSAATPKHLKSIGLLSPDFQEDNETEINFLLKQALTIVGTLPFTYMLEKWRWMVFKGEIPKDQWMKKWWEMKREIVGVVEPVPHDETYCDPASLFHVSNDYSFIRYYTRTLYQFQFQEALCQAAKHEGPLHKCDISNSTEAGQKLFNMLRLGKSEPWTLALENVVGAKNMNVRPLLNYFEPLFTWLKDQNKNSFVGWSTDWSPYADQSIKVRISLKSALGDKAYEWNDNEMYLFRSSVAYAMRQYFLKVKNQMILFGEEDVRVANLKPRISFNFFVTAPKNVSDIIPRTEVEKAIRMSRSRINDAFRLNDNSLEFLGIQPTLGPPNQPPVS
Assign χ^2 to each entry below.
One number for each entry.

Answered examples (2):
Cc1cc(O[C@@H]2OC(CO)[C@@H](O)C(O)C2O)c2c(c1)C(=O)c1cc(O)cc(O)c1C2=O (stereo partly drawn) [Emodin 8-O-β-D-glucoside (195), Emodin 8-O-β-D-glucoside]    3.190
CC1(C)[C@@H](O[C@H]2O[C@H](C(=O)O)[C@@H](O)[C@H](O)[C@H]2O[C@@H]2O[C@H](C(=O)O)[C@@H](O)[C@H](O)[C@H]2O)CC[C@]2(C)[C@H]3C(=O)C=C4[C@@H]5C[C@@](C)(C(=O)O)CC[C@]5(C)CC[C@@]4(C)[C@]3(C)CC[C@@H]12    0.321

Lab note: next compound to report on.
**Query** Note down χ^2 recorded for "N#C[C@H](O[C@@H]1O[C@H](CO)[C@@H](O)[C@H](O)[C@H]1O)c1ccccc1"
**Result** 0.244

---

Assign pIC50 to each entry below.
# assayed_system: ACE2 (Homo sapiens, UniProt Q9BYF1)
# protocol_notes: Test of ACE2 inhibitory activity
# Format: biochemical
# Sequence (Q9BYF1 18-805): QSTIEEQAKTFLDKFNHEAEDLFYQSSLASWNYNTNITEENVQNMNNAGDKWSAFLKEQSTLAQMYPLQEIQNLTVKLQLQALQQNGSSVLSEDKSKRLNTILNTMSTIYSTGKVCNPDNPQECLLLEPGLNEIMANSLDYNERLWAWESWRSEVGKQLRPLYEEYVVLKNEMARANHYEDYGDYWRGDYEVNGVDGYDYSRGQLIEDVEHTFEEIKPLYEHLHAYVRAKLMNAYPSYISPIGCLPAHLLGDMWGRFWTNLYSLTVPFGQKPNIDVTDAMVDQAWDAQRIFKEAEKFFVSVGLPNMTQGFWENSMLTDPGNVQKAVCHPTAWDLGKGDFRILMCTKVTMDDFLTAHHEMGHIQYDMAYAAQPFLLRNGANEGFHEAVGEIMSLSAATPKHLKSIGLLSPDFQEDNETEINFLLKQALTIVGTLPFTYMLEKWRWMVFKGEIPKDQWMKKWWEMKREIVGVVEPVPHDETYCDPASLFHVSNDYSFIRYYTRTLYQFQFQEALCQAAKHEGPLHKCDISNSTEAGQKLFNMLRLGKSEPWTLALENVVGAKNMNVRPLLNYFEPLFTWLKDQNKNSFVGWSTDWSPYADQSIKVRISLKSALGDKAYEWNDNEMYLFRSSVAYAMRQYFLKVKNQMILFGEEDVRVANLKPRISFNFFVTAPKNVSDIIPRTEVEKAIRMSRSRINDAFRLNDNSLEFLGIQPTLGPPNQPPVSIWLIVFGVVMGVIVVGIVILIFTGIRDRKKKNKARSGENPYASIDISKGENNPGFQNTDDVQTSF
Numbers only, as −log10 of the molar value.

Hi team, please reply with pIC50 for each item in this list.
1. O=C(O)c1cc(O)c2c(c1)C(=O)c1cccc(O)c1C2=O
2. CC(C)C[C@H](N[C@@H](Cc1cncn1Cc1cc(Cl)cc(Cl)c1)C(=O)O)C(=O)O [MLN-4760, reference compound]

**Result**
4.74
7.20

---

Assign χ^2 to each entry below.
# assayed_system: ACE2 (Homo sapiens)
# protocol_notes: SPR analysis of affinity to ACE2 recombinant protein
# Format: binding
# condition: SPR fit quality
Answers are plain numbers.

Answered examples (2):
C[C@@H]1O[C@@H](OC[C@H]2O[C@@H](OCCc3ccc(O)c(O)c3)[C@H](O)[C@@H](O)[C@@H]2OC(=O)/C=C/c2ccc(O)c(O)c2)[C@H](O)[C@H](O)[C@H]1O [Forsythoside A (128), Forsythoside A]    5.280
C[C@@H]1O[C@@H](OC[C@H]2O[C@@H](OCCc3ccc(O)c(O)c3)[C@H](O)[C@@H](OC(=O)/C=C/c3ccc(O)c(O)c3)[C@@H]2O)[C@H](O)[C@H](O)[C@H]1O [Forsythoside I (104), Forsythoside I]    1.910

Hi team, please reply with χ^2 for each item in this list.
1. O=C(/C=C/c1ccc(O)c(O)c1)O[C@@H]1C[C@@](O)(C(=O)O)C[C@@H](O)[C@@H]1O
2. C[C@@H]1O[C@@H](OC[C@H]2O[C@@H](Oc3c(-c4ccc(O)c(O)c4)oc4cc(O)cc(O)c4c3=O)[C@H](O)[C@@H](O)[C@@H]2O)[C@H](O)[C@H](O)[C@H]1O
3. O=C1c2cccc(O)c2C(=O)c2c(O)cc(CO)cc21

**Result**
[1.260, 1.290, 7.720]

---

# protocol_notes: LHQW components in human plasma after repeated oral dosing
# Assay type: in vivo
# condition: after repeated oral administration of LHQW capsule, semi-quantitative
value_type: Human in vivo exposure (in words)

Answered examples (6):
C[C@@H]1O[C@@H](Oc2c(-c3ccc(O)c(O)c3)oc3cc(O)cc(O)c3c2=O)[C@H](O)[C@H](O)[C@H]1O    higher human exposure
C[C@@H]1O[C@@H](OC[C@H]2O[C@@H](OCCc3ccc(O)c(O)c3)[C@H](O)[C@@H](OC(=O)/C=C/c3ccc(O)c(O)c3)[C@@H]2O)[C@H](O)[C@H](O)[C@H]1O [Forsythoside I (104), Forsythoside I]    low in vivo exposure
C=CC1CNC(=S)O1 (racemic) [(R,S)-goitrin]    higher human exposure
CN[C@@H](C)[C@@H](O)c1ccccc1    higher human exposure
CN[C@@H](C)[C@H](O)c1ccccc1    higher human exposure
OC[C@H]1O[C@@H](OCCc2ccc(O)cc2)[C@H](O)[C@@H](O)[C@@H]1O [salidroside]    higher human exposure

Lab note: next compound to report on.
**Query** Note down Human in vivo exposure (in words) recorded for C[C@@H]1O[C@@H](OC[C@H]2O[C@@H](OCCc3ccc(O)c(O)c3)[C@H](O)[C@@H](O)[C@@H]2OC(=O)/C=C/c2ccc(O)c(O)c2)[C@H](O)[C@H](O)[C@H]1O [Forsythoside A (128), Forsythoside A]
**Result** low in vivo exposure
